Species on record: Rattus norvegicus
ASSAY_METHOD_TEXT: DrugMatrix - Regimen: Daily Repeat
Type: toxicity, organism-based, Sprague-Dawley
Parameters: regimen Daily Repeat, gender Male, age 6-8 weeks
SETUP_CONDITIONS: in vivo, po, 1500 mg/kg, 72 h, tissue Blood, route oral GAVAGE, dose level High, time 3 day, vehicle .5 % CMC
Below: a set of entries, each annotated with reported ABSOLUTE LYMPHOCYTE.

# COMPOUND, ABSOLUTE LYMPHOCYTE, CELLS/uL
data = [
    ("Cc1ccc(S(=O)(=O)NC(=O)NN2CCCCCC2)cc1 [TOLAZAMIDE]", 13270.33),
    ("O=C(O)CCc1nc(-c2ccccc2)c(-c2ccccc2)o1 [OXAPROZIN]", 11713.67),
    ("CC[C@H]1OC(=O)[C@H](C)[C@@H](O[C@H]2C[C@@](C)(OC)[C@@H](O)[C@H](C)O2)[C@H](C)[C@@H](O[C@@H]2O[C@H](C)C[C@H](N(C)C)[C@H]2O)[C@](C)(O)C[C@@H](C)C(=O)[C@H](C)[C@@H](O)[C@]1(C)O [ERYTHROMYCIN]", 15179),
    ("COc1cc(/C=C/C(=O)O)ccc1O [FERULATE]", 12584.67),
]

---

Reported URIC ACID values are given for each entry in this list.
Species: Rattus norvegicus
ASSAY_METHOD_TEXT: DrugMatrix - Regimen: Daily Repeat
Assay type: toxicity, organism-based, Sprague-Dawley
Set-up: regimen Daily Repeat, gender Male, age 6-8 weeks
SETUP_CONDITIONS: in vivo, po, 0 mg/kg, 120 h, tissue Plasma, route oral GAVAGE, dose level Control, time 5 day, […]
READOUT: URIC ACID (mg/dL)

# COMPOUND, TEST_RESULT
data = [
    ("CO[C@H]1O[C@@H]2O[C@@]3(C)CC[C@H]4[C@H](C)CC[C@@H]([C@H]1C)[C@@]24OO3", 1.8),
    ("COC(=O)Nc1nc2ccc(C(=O)c3ccccc3)cc2[nH]1 [MEBENDAZOLE]", 0.77),
    ("CCOC(=O)C1=C(C)NC(C)=C(C(=O)OCC)C1c1ccccc1/C=C/C(=O)OC(C)(C)C [LACIDIPINE]", 0.85),
    ("CC(C)(c1ccc(O)cc1)c1ccc(O)cc1 [BISPHENOL A]", 0.8),
    ("CC#C[C@]1(O)CC[C@H]2[C@@H]3CCC4=CC(=O)CCC4=C3[C@@H](c3ccc(N(C)C)cc3)C[C@@]21C [MIFEPRISTONE]", 0.52),
    ("O=C(O)COC(=O)Cc1ccccc1Nc1c(Cl)cccc1Cl [ACECLOFENAC]", 0.77),
    ("Oc1ncnc2[nH]ncc12 [ALLOPURINOL]", 1.47),
    ("c1ccc2c(c1)Nc1ccccc1S2 [PHENOTHIAZINE]", 0.6),
    ("COc1ccccc1OCCNCC(O)COc1cccc2[nH]c3ccccc3c12 (stereo not drawn) [CARVEDILOL]", 0.77),
    ("CCC(C)(C)C(=O)O[C@H]1C[C@@H](C)C=C2C=C[C@H](C)[C@H](CC[C@@H]3C[C@@H](O)CC(=O)O3)[C@H]21 [SIMVASTATIN]", 0.52),
    ("CS(=O)(=O)c1ccc(C2=C(c3ccccc3)C(=O)OC2)cc1 [ROFECOXIB]", 0.6),
    ("O=C(Nc1ccc(Cl)c(Cl)c1)c1cc(Cl)cc(Cl)c1O [3,3',4',5-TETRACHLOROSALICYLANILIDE]", 1.55),
    ("Cc1cccc(C)c1NC(=O)C(C)N (stereo not drawn) [TOCAINIDE]", 0.7),
]

Reference source: ChEMBL document CHEMBL3885881
